test system: UM-UC-3 (Bladder Carcinoma); assay: combination Emax (second highest fraction inhibited in the dose matrix, 72 h); higher = more inhibition; extreme values may be limits of the assay
Assign criterion met to entries whose combination Emax meets or exceeds 0.3; assign criterion not met to the rest.

# compound, target_desc, assigned_class
records = [
    ("CN(CCO)CC[C@H](CSc1ccccc1)Nc1ccc(S(=O)(=O)NC(=O)c2ccc(N3CCC([C@@H](O)c4ccccc4-c4ccc(Cl)cc4)CC3)cc2)cc1S(=O)(=O)C(F)(F)F [AZD4320] + Cc1cc2ncnn2cc1Nc1ncc2c(n1)n(C1CCOCC1)c(=O)n2C [AZD7648] (first compound max 1 µM, 7x7, partner max 10 µM)", "UM-UC-3 (Bladder Carcinoma)", "criterion not met"),
    ("CN(C)CCCOc1ccc(-c2ccc3ncc4c(c3c2)n(C2CCOCC2)c(=O)n4C)cn1 [AZD0156] + C=CCn1c(=O)c2cnc(Nc3ccc(N4CCN(C)CC4)cc3)nc2n1-c1cccc(C(C)(C)O)n1 [AZD1775] (first compound max 1 µM, partner max 1 µM)", "UM-UC-3 (Bladder Carcinoma)", "criterion not met"),
    ("Cc1nc(Nc2ncc(C(=O)Nc3c(C)cccc3Cl)s2)cc(N2CCN(CCO)CC2)n1 [Dasatinib] + CC(=O)Nc1cccc(-n2c(=O)n(C3CC3)c(=O)c3c(Nc4ccc(I)cc4F)n(C)c(=O)c(C)c32)c1 [Trametinib] (first compound max 2 µM, 7x7, partner max 1 µM)", "UM-UC-3 (Bladder Carcinoma)", "criterion met"),
    ("CC(=O)c1c(C)c2cnc(Nc3ccc(N4CCNCC4)cn3)nc2n(C2CCCC2)c1=O [Palbociclib] + Cc1c2c(nn1C)CSCc1cc(n(C)n1)CSc1cc(c3ccccc3c1)OCCCc1c(C(=O)O)n(C)c3c-2c(Cl)ccc13 [AZD5991] (first compound max 10 µM, 7x7, partner max 1 µM)", "UM-UC-3 (Bladder Carcinoma)", "criterion not met"),
    ("Cc1c2c(nn1C)CSCc1cc(n(C)n1)CSc1cc(c3ccccc3c1)OCCCc1c(C(=O)O)n(C)c3c-2c(Cl)ccc13 [AZD5991] + C=CCn1c(=O)c2cnc(Nc3ccc(N4CCN(C)CC4)cc3)nc2n1-c1cccc(C(C)(C)O)n1 [AZD1775] (first compound max 1 µM, partner max 1 µM)", "UM-UC-3 (Bladder Carcinoma)", "criterion not met"),
]

Exercise: Determine whether this compound has combination Emax no lower than 0.3: COc1nnc2ccc(N3CCC(c4ccc(OCCN5CCN(C)C(=O)[C@H]5C)cc4)CC3)nn12 [AZD5153] + Cc1c2c(nn1C)CSCc1cc(n(C)n1)CSc1cc(c3ccccc3c1)OCCCc1c(C(=O)O)n(C)c3c-2c(Cl)ccc13 [AZD5991] (first compound max 1 µM, 7x7, partner max 1 µM)
Solution: criterion not met

Exercise: Would you say C[C@@H]1COCCN1c1cc(C2([S@](C)(=N)=O)CC2)nc(-c2ccnc3[nH]ccc23)n1 [AZD6738] + Nc1ccn([C@@H]2O[C@H](CO)[C@@H](O)C2(F)F)c(=O)n1 [Gemcitabine] (first compound max 10 µM, 7x7, partner max 0.3 µM) shows combination Emax at minimum 0.3?
Solution: criterion met

###

tested on: DoTc2-4510 (Cervical Carcinoma); assay: combination Emax (second highest fraction inhibited in the dose matrix, 72 h); higher = more inhibition; extreme values may be limits of the assay
measurement_name: combination Emax

# compound, result
rows = [
    ("Cn1cnc2c(F)c(Nc3ccc(Br)cc3Cl)c(C(=O)NOCCO)cc21 [Selumetinib] + C=CCn1c(=O)c2cnc(Nc3ccc(N4CCN(C)CC4)cc3)nc2n1-c1cccc(C(C)(C)O)n1 [AZD1775] (first compound max 10 µM, partner max 1 µM)", 0.251),
]

Next item in the queue.
Exercise: Return the recorded combination Emax value; entry: C=CCn1c(=O)c2cnc(Nc3ccc(N4CCN(C)CC4)cc3)nc2n1-c1cccc(C(C)(C)O)n1 [AZD1775] + O=C(c1cc(Cc2n[nH]c(=O)c3ccccc23)ccc1F)N1CCN(C(=O)C2CC2)CC1 [Olaparib] (first compound max 1 µM, partner max 10 µM)
Solution: 0.458

###

system: AGS (Gastric Carcinoma); assay: combination Emax (second highest fraction inhibited in the dose matrix, 72 h); higher = more inhibition; extreme values may be limits of the assay
measurement_name: combination Emax
Just the number, please, no unit after it.

# molecule, quantitative_result
data = [
    ("CC1(C)CCC(CN2CCN(c3ccc(C(=O)NS(=O)(=O)c4ccc(NCC5CCOCC5)c([N+](=O)[O-])c4)c(Oc4cnc5[nH]ccc5c4)c3)CC2)=C(c2ccc(Cl)cc2)C1 [Venetoclax] + CN(C)CCCOc1ccc(-c2ccc3ncc4c(c3c2)n(C2CCOCC2)c(=O)n4C)cn1 [AZD0156] (first compound max 1 µM, 7x7, partner max 1 µM)", 0.221),
    ("CN(CCO)CC[C@H](CSc1ccccc1)Nc1ccc(S(=O)(=O)NC(=O)c2ccc(N3CCC([C@@H](O)c4ccccc4-c4ccc(Cl)cc4)CC3)cc2)cc1S(=O)(=O)C(F)(F)F [AZD4320] + C[C@@H](Nc1cc(F)cc(F)c1)c1cc(C(=O)N(C)C)cc2c(=O)cc(N3CCOCC3)oc12 [AZD8186] (first compound max 1 µM, 7x7, partner max 3 µM)", 0.974),
    ("CCc1c2c(nc3ccc(O)cc13)-c1cc3c(c(=O)n1C2)COC(=O)[C@]3(O)CC [SN-38] + O=C(c1cc(Cc2n[nH]c(=O)c3ccccc23)ccc1F)N1CCN(C(=O)C2CC2)CC1 [Olaparib] (first compound max 0.3 µM, 7x7, partner max 10 µM)", 0.884),
    ("CC(=O)Nc1cccc(-n2c(=O)n(C3CC3)c(=O)c3c(Nc4ccc(I)cc4F)n(C)c(=O)c(C)c32)c1 [Trametinib] + Cc1nc(-c2cn3c(n2)-c2ccc(-c4cnn(C(C)(C)C(N)=O)c4)cc2OCC3)n(C(C)C)n1 [Taselisib] (first compound max 1 µM, 7x7, partner max 10 µM)", 1),
    ("CCN(CCO)CCCOc1ccc2c(Nc3cc(CC(=O)Nc4cccc(F)c4)[nH]n3)ncnc2c1 [AZD2811] + O=C(c1cc(Cc2n[nH]c(=O)c3ccccc23)ccc1F)N1CCN(C(=O)C2CC2)CC1 [Olaparib] (first compound max 1 µM, 7x7, partner max 10 µM)", 0.302),
    ("Cc1c2c(nn1C)CSCc1cc(n(C)n1)CSc1cc(c3ccccc3c1)OCCCc1c(C(=O)O)n(C)c3c-2c(Cl)ccc13 [AZD5991] + C1CN(CCC1(C(=O)N[C@@H](CCO)C2=CC=C(C=C2)Cl)N)C3=NC=NC4=C3C=CN4 [Capivasertib] (first compound max 1 µM, 7x7, partner max 3 µM)", 0.335),
]

Please find the next molecule below.
Exercise: Check the records and state combination Emax for C[C@@H](c1ccc2nccn2c1)n1nnc2ncc(-c3cnn(C)c3)nc21 [Savolitinib] + CN(CC[C@H](CSC1=CC=CC=C1)NC2=C(C=C(C=C2)S(=O)(=O)NC(=O)C3=CC=C(C=C3)N4CCC(CC4)[C@H](C5=CC=CC=C5C6=CC=C(C=C6)Cl)O)S(=O)(=O)C(F)(F)F)CCO [AZD4320] (first compound max 1 µM, 7x7, partner max 1 µM)
Solution: 0.377

###

Each item that follows carries a reported combination Emax.
system: COLO-205 (Colorectal Carcinoma); experiment: combination Emax (second highest fraction inhibited in the dose matrix, 72 h); higher = more inhibition; extreme values may be limits of the assay
Lab note: write the figure by itself, no unit.

Check out these entries, answers already filled in.
# compound, quantitative_result
rows = [
    ("Cc1c2c(nn1C)CSCc1cc(n(C)n1)CSc1cc(c3ccccc3c1)OCCCc1c(C(=O)O)n(C)c3c-2c(Cl)ccc13 [AZD5991] + CCN(CCO)CCCOc1ccc2c(Nc3cc(CC(=O)Nc4cccc(F)c4)[nH]n3)ncnc2c1 [AZD2811] (first compound max 1 µM, 7x7, partner max 1 µM)", 0.948),
    ("Cc1nc(Nc2ncc(C(=O)Nc3c(C)cccc3Cl)s2)cc(N2CCN(CCO)CC2)n1 [Dasatinib] + CC(=O)Nc1cccc(-n2c(=O)n(C3CC3)c(=O)c3c(Nc4ccc(I)cc4F)n(C)c(=O)c(C)c32)c1 [Trametinib] (first compound max 2 µM, 7x7, partner max 1 µM)", 0.728),
]

Exercise: Return reported combination Emax. Input compound: CC1(C)CCC(CN2CCN(c3ccc(C(=O)NS(=O)(=O)c4ccc(NCC5CCOCC5)c([N+](=O)[O-])c4)c(Oc4cnc5[nH]ccc5c4)c3)CC2)=C(c2ccc(Cl)cc2)C1 [Venetoclax] + Cc1cc2ncnn2cc1Nc1ncc2c(n1)n(C1CCOCC1)c(=O)n2C [AZD7648] (first compound max 1 µM, 7x7, partner max 10 µM)
Solution: 0.213

###

system: MFE-296 (Endometrial Carcinoma); assay: Bliss excess, mean over the matrix (fraction); higher = more synergy;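 further: after 72 h of two-drug dosing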
Recorded measurements of Bliss excess, one per entry
No unit in the answer, only the number.

Worked examples follow.
# molecule, Bliss excess
measured = [
    ("CN(CCO)CC[C@H](CSc1ccccc1)Nc1ccc(S(=O)(=O)NC(=O)c2ccc(N3CCC([C@@H](O)c4ccccc4-c4ccc(Cl)cc4)CC3)cc2)cc1S(=O)(=O)C(F)(F)F [AZD4320] + C[C@@H]1COCCN1C2=NC(=NC(=C2)C3(CC3)[S@](=N)(=O)C)C4=C5C=CNC5=NC=C4 [AZD6738] (first compound max 1 µM, 7x7, partner max 10 µM)", 0.0178),
    ("CN(CCO)CC[C@H](CSc1ccccc1)Nc1ccc(S(=O)(=O)NC(=O)c2ccc(N3CCC([C@@H](O)c4ccccc4-c4ccc(Cl)cc4)CC3)cc2)cc1S(=O)(=O)C(F)(F)F [AZD4320] + C[C@@H](Nc1cc(F)cc(F)c1)c1cc(C(=O)N(C)C)cc2c(=O)cc(N3CCOCC3)oc12 [AZD8186] (first compound max 1 µM, 7x7, partner max 3 µM)", 0.0075),
]

Exercise: Give reported Bliss excess value for Cc1cc2ncnn2cc1Nc1ncc2c(n1)n(C1CCOCC1)c(=O)n2C [AZD7648] + C[C@@H]1COCCN1C2=NC(=NC(=C2)C3(CC3)[S@](=N)(=O)C)C4=C5C=CNC5=NC=C4 [AZD6738] (first compound max 10 µM, 7x7, partner max 10 µM)
Solution: 0.0193
